Kindly state IC50 for each of the entries shown.
Biological target: FLT3 receptor (MV4-11 cell line bearing an FLT3ITD mutant) (Homo sapiens, UniProt P36888, INS600HVDFREYEYD)
Construct: MV4-11 cell line, which line is established from a leukaemia of constitutively active AML type bearing an FLT3ITD mutant; endogenous in cells
Sequence (P36888 with tags, fused parts or gaps with the stated changes): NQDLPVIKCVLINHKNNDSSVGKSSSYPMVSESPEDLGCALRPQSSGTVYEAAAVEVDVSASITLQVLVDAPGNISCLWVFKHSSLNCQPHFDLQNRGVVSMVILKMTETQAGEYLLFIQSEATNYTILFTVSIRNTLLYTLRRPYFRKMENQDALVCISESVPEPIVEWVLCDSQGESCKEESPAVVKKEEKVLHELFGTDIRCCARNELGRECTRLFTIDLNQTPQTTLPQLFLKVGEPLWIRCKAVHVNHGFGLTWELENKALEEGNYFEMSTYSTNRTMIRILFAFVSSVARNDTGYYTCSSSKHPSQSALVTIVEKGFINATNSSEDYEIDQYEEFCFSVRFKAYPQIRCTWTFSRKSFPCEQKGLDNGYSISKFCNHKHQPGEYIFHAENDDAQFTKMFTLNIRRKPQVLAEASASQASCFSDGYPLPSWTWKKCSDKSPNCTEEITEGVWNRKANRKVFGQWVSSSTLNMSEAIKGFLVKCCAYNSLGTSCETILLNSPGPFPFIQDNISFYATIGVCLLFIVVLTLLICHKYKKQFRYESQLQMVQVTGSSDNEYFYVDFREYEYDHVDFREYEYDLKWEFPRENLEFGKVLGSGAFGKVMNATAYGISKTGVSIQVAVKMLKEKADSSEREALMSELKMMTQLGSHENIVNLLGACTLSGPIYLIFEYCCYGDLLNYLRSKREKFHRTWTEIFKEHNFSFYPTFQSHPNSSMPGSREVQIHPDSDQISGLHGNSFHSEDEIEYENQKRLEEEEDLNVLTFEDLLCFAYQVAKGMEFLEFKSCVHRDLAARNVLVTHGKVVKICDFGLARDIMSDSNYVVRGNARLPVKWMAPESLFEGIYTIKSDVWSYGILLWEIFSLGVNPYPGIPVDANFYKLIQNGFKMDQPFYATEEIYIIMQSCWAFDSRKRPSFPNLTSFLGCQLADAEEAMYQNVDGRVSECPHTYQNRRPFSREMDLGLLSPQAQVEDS
Test: Inhibition of FLT3 receptor tyrosine kinase activity: proliferation of MV4-11 cells (CellTiter-Glo, 72 h)
Details: 72 hours incubation, read-out: IC50 (concentration that inhibits 50% of the proliferation of the MV4-11 cells)
Give the quantity in nM, number only.

Per the record, CCn1c(N)c(C(=O)NC)c(=O)c2ccc(-c3ccc(CC(=O)Nc4ccccn4)cc3)nc21 has IC50 of 210

Per the record, CCn1c(N)c(C(=O)NC)c(=O)c2ccc(-c3ccc(CC(=O)Nc4cccnc4)cc3)nc21 has IC50 of 330

Per the record, CCn1c(N)c(C(=O)NC)c(=O)c2ccc(-c3ccc(CC(=O)Nc4nccs4)cc3)nc21 has IC50 of 83

Per the record, CCN1CC(F)(F)C[C@H]1CNC(=O)Cc1ccc(-c2ccc3c(=O)c(C(=O)NC)c(N)n(CC)c3n2)cc1 has IC50 of 190

Per the record, CCn1c(N)c(C(=O)NC)c(=O)c2ccc(-c3ccc(CC(=O)Nc4ccncn4)cc3)nc21 has IC50 of 182

Per the record, CCN1CCOCC1CNC(=O)Cc1ccc(-c2ccc3c(=O)c(C(=O)NC)c(N)n(CC)c3n2)cc1 (stereo not shown) has IC50 of 130

Per the record, CCn1c(N)c(C(=O)NC)c(=O)c2ccc(-c3ccc(CC(=O)Nc4ccccc4Cl)cc3)nc21 has IC50 of 190

----------
Target: FLT3 receptor (MV4-11 cell line bearing an FLT3ITD mutant) (Homo sapiens, UniProt P36888, INS600HVDFREYEYD)
Construct: MV4-11 cell line, which line is established from a leukaemia of constitutively active AML type bearing an FLT3ITD mutant; endogenous in cells
Assay: Inhibition of FLT3 receptor tyrosine kinase activity: proliferation of MV4-11 cells (CellTiter-Glo, 72 h)
Settings: 72 hours incubation, read-out: IC50 (concentration that inhibits 50% of the proliferation of the MV4-11 cells)
Kindly state pIC50 for each of the entries shown.
The scale used: pIC50 is minus the common logarithm of the concentration in molar units.

Per the record, CCn1c(N)c(C(=O)NC)c(=O)c2ccc(-c3ccc(CC(=O)Nc4ccccn4)cn3)nc21 has pIC50 of 7.00

Per the record, CCN1CCC[C@@H]1CNC(=O)Cc1ccc(-c2ccc3c(=O)c(C(=O)NC)c(N)n(CC)c3n2)cc1 has pIC50 of 6.47

Per the record, CCn1c(N)c(C(=O)NC)c(=O)c2ccc(-c3ccc(CC(=O)Nc4cc(F)cc(F)c4)cc3)nc21 has pIC50 of 7.00

Per the record, CCn1c(N)c(C(=O)NC)c(=O)c2ccc(-c3ccc(CC(=O)NCC4COCCN4C4CC4)cc3)nc21 (stereo not shown) has pIC50 of 7.25
